For each of the binders below, state its % inhibition of HTRF signal.
- target-desc: T1, human TNC rCd4-His-FBG (rat; human, UniProt P05540 209-391; P24821 1974-2201, limits assumed)
- T1 construct: domain: domains 3 and 4;domain: FBG; C-terminal FBG fusion made in HEK293F cells; biotinylated in the ELISA and HTRF assays; also called Hu TNC; hTNC; not shown: 6His tag
- T1 sequence (chain (part 1 of 2), looked up): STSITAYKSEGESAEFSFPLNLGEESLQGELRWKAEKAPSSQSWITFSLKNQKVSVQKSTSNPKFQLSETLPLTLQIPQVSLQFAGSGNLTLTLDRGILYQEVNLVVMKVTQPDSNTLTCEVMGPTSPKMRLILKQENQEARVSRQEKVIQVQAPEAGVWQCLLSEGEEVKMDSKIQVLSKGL
- T1 sequence (chain (part 2 of 2), looked up): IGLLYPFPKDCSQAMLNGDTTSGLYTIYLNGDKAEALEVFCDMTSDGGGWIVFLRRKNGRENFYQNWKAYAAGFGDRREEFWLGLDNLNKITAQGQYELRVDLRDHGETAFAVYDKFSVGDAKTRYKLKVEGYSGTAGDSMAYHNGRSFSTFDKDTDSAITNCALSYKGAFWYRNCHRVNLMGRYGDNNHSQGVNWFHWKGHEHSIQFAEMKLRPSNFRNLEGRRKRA
- measurement-description: HTRF competition, scFv supernatant; competitor d2-labelled B12 IgG
- Description: IgG antibodies were labelled using the d2 labelling kit (CisBio, 62D2DPEA) as directed by the manufacturer. […] Biotinylated rCd4-His-FBG was prepared using EZ-link Sulfo-NHS-LC-Biotin reagent (Thermo Scientific, 21327) the extent of biotinylation was quantified using biotinylation fluorescence quantitation kit (Thermo Scientific, 46610). […] All FRET signals are presented as ΔR, where R =(E665/E620×104) and ΔR =(Rsample-Rbackground fluorescence). […]

Tell me its % inhibition of HTRF signal given 165_13_C3 scFv (scFv, V domains shown, scFv in E. coli supernatant) VH: QVQLVESGGGLVQPGRSLRLSCAASGFTFDDYAMHWVRQAPGKGLEWVSGISGSGGSTYYADSVKGRFTISRDNAKNSLYLQMNSLRAEDTALYYCAKSYQSDEDAFDIWGQGTMVTVSS VL: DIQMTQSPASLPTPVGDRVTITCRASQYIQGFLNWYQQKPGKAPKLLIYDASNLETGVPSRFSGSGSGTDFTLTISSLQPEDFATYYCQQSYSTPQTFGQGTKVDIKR as the entry.
≥ 91%

Tell me its % inhibition of HTRF signal given 165_13_A4 scFv (scFv, V domains shown, scFv in E. coli supernatant) VH: QVQLVESGGGLVQPGRSLRLSCAASGFTFDDYAMHWVRQAPGKGLEWVSGISGSGGSTYYADSVKGRFTISRDNAKNSLYLQMNSLRAEDTALYYCAKDKYPVLDTFDIWGQGTMVTVSS VL: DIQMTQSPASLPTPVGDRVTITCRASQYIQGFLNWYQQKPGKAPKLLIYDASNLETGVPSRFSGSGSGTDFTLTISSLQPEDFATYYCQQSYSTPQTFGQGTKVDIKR as the entry.
≥ 91%

# credit: patent US20200223910A1
